B1: mRNA-splicing (parent)
chain: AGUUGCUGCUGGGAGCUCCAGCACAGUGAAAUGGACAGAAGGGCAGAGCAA

variants of: B1; experiment: exon inclusion enrichment index; higher = more inclusion; WT1 exon 5 minigene, HEK293
So I've got a bunch of variants here, and I need their exon inclusion enrichment index values.
One number for each entry.

Worked cases, answers included:
INSERT INTO measurements (mutationannotation, propertymeasured, quantitativeresult) VALUES
  ('G5C C6U G8C C9U U10C C36U A37U', 'exon inclusion enrichment index', 1.12),
  ('G5C C6A U7C C9G U10A', 'exon inclusion enrichment index', 1.72),
  ('C6A', 'exon inclusion enrichment index', 0.079),
  ('G5A U7C G8A U10C G43U', 'exon inclusion enrichment index', 1.89);

Items follow; give exon inclusion enrichment index for each.
1. C6A U7C C9A U10C A25C G26A
2. C6A U7C C9A U10C C36U A37U
3. G2U G5A C6U U7A G8U C9A
4. G5U G8U C9U G12U G13C
5. C6A U7C C9A U10C G43U C44U
6. C6A U7A C9A U10A G15A C16A
7. G5C U7C U10C

[4.93, 1.97, 0.188, 0.00926, 1.21, 0.363, 0.696]

Items follow; give exon inclusion enrichment index for each.
1. G5A C6U U7A G8U C9A C16U U17C
2. G5A C6G U7G C9A A23G C24G
3. G5C C6U G8C C9U U10C U17C C18G
4. G5C C6U G8C C9U U10C C36G A37U
5. U32C G33U

[0.0363, 0.0109, 2.39, 0.948, 0.0526]
